target: α-amylase (Homo sapiens, UniProt P04746); construct: purchased Sigma-Aldrich (Merck, Darmstadt, Germany); assay: In vitro α-amylase inhibition; format: biochemical; details: concentration range 75–600 µg/mL
Sequence (P04746 16-511): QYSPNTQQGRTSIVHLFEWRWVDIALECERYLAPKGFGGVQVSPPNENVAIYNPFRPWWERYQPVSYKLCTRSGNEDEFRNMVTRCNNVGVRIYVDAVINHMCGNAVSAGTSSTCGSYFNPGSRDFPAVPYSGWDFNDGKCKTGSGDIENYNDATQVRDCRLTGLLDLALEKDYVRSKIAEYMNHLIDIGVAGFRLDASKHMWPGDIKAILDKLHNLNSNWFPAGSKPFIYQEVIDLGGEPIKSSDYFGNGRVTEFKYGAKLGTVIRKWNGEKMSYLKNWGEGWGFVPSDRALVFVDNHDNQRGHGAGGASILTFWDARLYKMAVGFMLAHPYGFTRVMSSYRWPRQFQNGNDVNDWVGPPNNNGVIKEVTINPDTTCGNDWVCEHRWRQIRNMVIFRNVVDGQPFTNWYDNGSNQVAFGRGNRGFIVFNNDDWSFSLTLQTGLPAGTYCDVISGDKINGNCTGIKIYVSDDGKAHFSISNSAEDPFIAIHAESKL
Please respond with reported pIC50 for every item in the list.
Lab note — pIC50 values are minus log10 of concentrations in M.

**Q:** Consider the molecule O=C(O[C@H]1[C@H](O)[C@@H](CO)OC(O)[C@@H]1OC(=O)c1cc(O)c(O)c(O)c1)c1cc(O)c(O)c(O)c1 (stereo partly drawn) [Compound 5, 2,3-α, β-digalloy glucose] and give its measured pIC50.
**A:** 3.35

**Q:** Consider the molecule O=C(O[C@@H]1[C@@H](OC(=O)c2cc(O)c(O)c(O)c2)[C@H](O)O[C@@H]2COC(=O)c3cc(O)c(O)c(O)c3-c3c(cc(O)c(O)c3O)C(=O)O[C@@H]12)c1cc(O)c(O)c(O)c1 [Compound 4, tellimagranidine-I] and give its measured pIC50.
**A:** 3.56

**Q:** Consider the molecule C[C@@H]1O[C@@H](OC[C@H]2O[C@@H](Oc3c(-c4ccc(O)c(O)c4)oc4cc(O)cc(O)c4c3=O)[C@H](O)[C@@H](O)[C@@H]2O)[C@H](O)[C@H](O)[C@H]1O [Compound 3, quercetin 3-O-rutinoside] and give its measured pIC50.
**A:** 3.44

**Q:** Consider the molecule C[C@@H]1O[C@@H](OC[C@H]2O[C@@H](Oc3c(-c4ccc(O)cc4)oc4cc(O)cc(O)c4c3=O)[C@H](O)[C@@H](O)[C@@H]2O)[C@H](O)[C@H](O)[C@H]1O [Compound 2, kaempfeol 3-O-rutinoside] and give its measured pIC50.
**A:** 3.46
